zone of inhibition at 100 µg/mL values for the compounds below.
# Tested on: Klebsiella pneumoniae
# Test summary: Antibacterial activity against Klebsiella pneumoniae MTCC 432 assessed as growth inhibition at 100 ug/mL after 14 hrs by cup plate method
# Format: functional
# Test context: MTCC 432, 14 h, read-out: DIZ
// note: answer is a bare numeric in mm

I would be grateful if you could share the reported zone of inhibition at 100 µg/mL for `Cc1cc(=O)oc2cc(OCCCCCCn3cc(CN4C(=O)c5ccccc5C4=O)nn3)ccc12` .
12.9

I would be grateful if you could share the reported zone of inhibition at 100 µg/mL for `Cc1cc(=O)oc2cc(OCc3cn(CCCCN4C(=O)c5ccccc5C4=O)nn3)ccc12` .
11.6

I would be grateful if you could share the reported zone of inhibition at 100 µg/mL for `Cc1cc(=O)oc2cc(OCc3cn(CCCCCN4C(=O)c5ccccc5C4=O)nn3)ccc12` .
12.6

I would be grateful if you could share the reported zone of inhibition at 100 µg/mL for `Cc1cc(=O)oc2cc(OCCCCn3cc(CN4C(=O)c5ccccc5C4=O)nn3)ccc12` .
12.4

I would be grateful if you could share the reported zone of inhibition at 100 µg/mL for `Cc1cc(=O)oc2cc(OCCCCCCn3cc(CN4CCN(Cc5ccc6c(c5)OCO6)CC4)nn3)ccc12` .
13.9

I would be grateful if you could share the reported zone of inhibition at 100 µg/mL for `Cc1cc(=O)oc2cc(OCCCCCCN=[N+]=[N-])ccc12` .
14.5

Further cases:
I would be grateful if you could share the reported zone of inhibition at 100 µg/mL for `Cc1cc(=O)oc2cc(OCCCCCCn3cc(CN4CCCC4)nn3)ccc12` .
14.4

I would be grateful if you could share the reported zone of inhibition at 100 µg/mL for `Cc1cc(=O)oc2cc(OCCCCCCn3cc(CN4CCN(C)CC4)nn3)ccc12` .
12.4

I would be grateful if you could share the reported zone of inhibition at 100 µg/mL for `CC(=O)N1CCN(Cc2cn(CCCCCCOc3ccc4c(C)cc(=O)oc4c3)nn2)CC1` .
14.4

I would be grateful if you could share the reported zone of inhibition at 100 µg/mL for `Cc1cc(=O)oc2cc(OCCCCCCn3cc(CN4CCCCC4)nn3)ccc12` .
12.9
